protocolText: In vivo pharmacokinetic studies of dihydropyridines given orally with water, grapefruit juice or orange juice (plasma concentration, GC analysis)
Set-up: species or system human (healthy subjects, hypertensive patients)
conditionSummary: human, plasma, po, felodipine plain tablets, healthy subjects, n = 9, grapefruit juice; mean; zero to infinity
resultType: AUC(0-inf)

Recorded AUC(0-inf) for CCOC(=O)C1=C(C)NC(C)=C(C(=O)OC)C1c1cccc(Cl)c1Cl (stereo not shown) , please?
0.065 µM·h

----------
protocolText: In vivo pharmacokinetic studies of dihydropyridines given orally with water, grapefruit juice or orange juice (plasma concentration, GC analysis)
Parameters: species or system human (healthy subjects, hypertensive patients)
conditionSummary: human, in vivo, po, 10 mg, nitrendipine 10 mg tablets, healthy subjects, n = 3, water; mean
resultType: Tmax (h)
Give the value, in units of h, as a plain number.

Recorded Tmax for CCOC(=O)C1=C(C)NC(C)=C(C(=O)OC)C1c1cccc([N+](=O)[O-])c1 (stereo not shown) , please?
1.5
